Each recorded value in this set is attributed to patent US10519177B2.

- assay_target: BRD4-BD12 (1-477) (Homo sapiens (Human), UniProt O60885)
- protocol_notes: Alphascreen binding assay BRD4-BD12
- experimental_conditions: BRD4(1 2) H4; read-out: Biochemical activity (IC50 μM) BRD4(1 2) H4
result_type: IC50

Illustrative cases are given below, each with its answer.
[
  {
    "compound": "CC[C@@H](c1ccccn1)n1cc(-c2ccc(C(=O)O)c(C)c2)c2ncc(-c3c(C)noc3C)cc21",
    "IC50": "< 1 µM"
  },
  {
    "compound": "Cc1noc(C)c1-c1cnc2c(-c3ccc(C(=O)O)cc3)cn(Cc3ccncc3)c2c1",
    "IC50": "< 1 µM"
  },
  {
    "compound": "Cc1noc(C)c1-c1cnc2c(Br)cn(C(CC#N)C3CCCC3)c2c1 (stereo not shown)",
    "IC50": "< 1 µM"
  }
]

Lab note: next compound to report on.
Lab note: Cc1noc(C)c1-c1cnc2c(I)cn(C(c3ccccn3)C3CCOCC3)c2c1 (stereo not shown) gave IC50 of < 1 µM

====

What IC50 was measured for each of the following?
- assay_target: BRD4-BD12 (1-477) (Homo sapiens (Human))
- protocol_notes: Alphascreen binding assay BRD4-BD12
- experimental_conditions: BRD4(1 2) H4; read-out: Biochemical activity (IC50 μM) BRD4(1 2) H4

[
  {
    "compound": "Cc1noc(C)c1-c1cnc2c(-c3ccc(CO)cc3)cn(CC3CCC(F)(F)CC3)c2c1 [P-0601]",
    "IC50": "< 1 µM"
  }
]

// each listed compound needs a value for IC50
1. Cc1noc(C)c1-c1cnc2c(-c3cccc(O)c3)cn(CC3(F)CCCCC3)c2c1 [P-0488]
2. Cc1noc(C)c1-c1cnc2c(-c3ccc(C(=O)O)cc3)cn(Cc3ccccc3F)c2c1 [P-0926]
3. CC[C@@H](c1ccccn1)n1cc(-c2ccc(C3(C(=O)O)CC3)cc2)c2ncc(-c3c(C)noc3C)cc21 [P-0969]

**A:**
1: < 1 µM; 2: < 1 µM; 3: < 1 µM

====

- assay_target: BRD4-BD12 (1-477) (Homo sapiens (Human))
- protocol_notes: Alphascreen binding assay BRD4-BD12
- experimental_conditions: BRD4(1 2) H4; read-out: Biochemical activity (IC50 μM) BRD4(1 2) H4
- Method: Binding of compounds of formula (I) with bromodomain 2, 3 4 was assessed using Alphascreen binding assay. The inhibition of the interaction between bromodomain and its acetylated target protein (Filippakopoulos P et al. 2012) was measured quantitatively using recombinant BRD proteins, an acetylated Histone 4 peptide and AlphaScreen™ technology. […]
result_type: IC50

Illustrative cases are given below, each with its answer.
[
  {
    "structure_smiles": "Cc1noc(C)c1-c1cnc2c(-c3cnn(CC(F)(F)F)c3)cn(CC3CCC(F)(F)CC3)c2c1",
    "readout_value": "< 1 µM"
  },
  {
    "structure_smiles": "COC(=O)c1ccc(-c2cn(Cc3cccc(C)n3)c3cc(-c4c(C)noc4C)cnc23)cc1",
    "readout_value": "< 1 µM"
  },
  {
    "structure_smiles": "Cc1noc(C)c1-c1cnc2c(-c3cnn(CC(F)(F)F)c3)cn(CC3CCCC3)c2c1",
    "readout_value": "< 1 µM"
  }
]

Lab note: next molecule to report on.
IC50 on BRD4-BD12 (1-477) (Homo sapiens (Human)) for "Cc1noc(C)c1-c1cnc2c(-c3ccc(C(=O)O)c(F)c3)cn(CC3(F)CCCCC3)c2c1" is < 1 µM
